# PROCEDURE_DETAILS: Hemolytic activity against New Zealand white rabbit RBC assessed as hemoglobin release measured after 1 hr
# Assay type: ADME, cell-based, Oryctolagus cuniculus, Erythrocyte
# CONDITION_CONTEXT: red blood cells
METRIC: HC50 at 1 h (µM)
Report the value in µM with no unit label.

COc1c(OCC(O)CNCCN)cc2oc3cc(OCC(O)CNCCN)c(CC=C(C)C)c(O)c3c(=O)c2c1CC=C(C)C (centres undefined) ... 125

Could you now look at the following molecule, please?
Suppose we examine the molecule COc1c(OCC(O)CNCCNCCNCCN)cc2oc3cc(OCC(O)CNCCNCCNCCN)c(CC=C(C)C)c(O)c3c(=O)c2c1CC=C(C)C (centres undefined) ; what HC50 at 1 h value has been reported?
155
